- System: S. aureus ATCC29213
- assay_method_text: MIC, broth dilution
- Assay type: cell-based, Staphylococcus aureus
- test_parameters: CLSI broth dilution, MHB, 6.25 × 10^5 cfu per ml, 37°C, 20 h, OD630, at least three repeats
Where a SMILES comes first, the peptide text is derived from it.
measured_quantity: MIC (µg/mL)
Give the value, in units of µg/mL, as a plain number.

Here are 4 molecules together with their reported answers.
- CC[C@H](C)[C@H](NC(=O)[C@H](CCCCN)NC(=O)[C@H](CCCCN)NC(=O)[C@@H](NC(=O)[C@@H](N)Cc1ccccc1)[C@@H](C)CC)C(=O)N[C@@H](C)C(=O)N[C@@H](CCCNC(=N)N)C(=O)N[C@@H](CC(C)C)C(=O)N[C@@H](CC(C)C)C(=O)N[C@@H](CCCNC(=N)N)C(=O)N[C@@H](CCCCN)C(=O)N[C@H](C(=O)N[C@@H](Cc1ccccc1)C(N)=O)[C@@H](C)CC [Kn2-7(R4K)] (H-FIKKIARLLRKIF-NH2): 5
- CC[C@H](C)[C@H](NC(=O)[C@H](CCCNC(=N)N)NC(=O)CNC(=O)[C@@H](NC(=O)[C@@H](N)Cc1ccccc1)[C@@H](C)CC)C(=O)N[C@@H](C)C(=O)N[C@@H](CCCNC(=N)N)C(=O)N[C@@H](CC(C)C)C(=O)N[C@@H](CC(C)C)C(=O)N[C@@H](CCCNC(=N)N)C(=O)N[C@@H](CCCCN)C(=O)N[C@H](C(=O)N[C@@H](Cc1ccccc1)C(N)=O)[C@@H](C)CC [Kn2(A4R_S10R)] (H-FIGRIARLLRKIF-NH2): 10
- CC[C@H](C)[C@H](NC(=O)[C@H](CCCNC(=N)N)NC(=O)[C@H](CCCCN)NC(=O)[C@@H](NC(=O)[C@@H](N)Cc1ccccc1)[C@@H](C)CC)C(=O)N[C@@H](C)C(=O)N[C@@H](CCCNC(=N)N)C(=O)N[C@@H](CC(C)C)C(=O)N[C@@H](CC(C)C)C(=O)N[C@@H](CCCCN)C(=O)N[C@@H](CCCCN)C(=O)N[C@H](C(=O)N[C@@H](Cc1ccccc1)C(N)=O)[C@@H](C)CC [Kn2-7(R10K)] (H-FIKRIARLLKKIF-NH2): 5
- CC[C@H](C)[C@H](NC(=O)[C@H](CCCNC(=N)N)NC(=O)CNC(=O)[C@@H](NC(=O)[C@@H](N)Cc1ccccc1)[C@@H](C)CC)C(=O)N[C@@H](C)C(=O)N[C@@H](CCCNC(=N)N)C(=O)N[C@@H](CC(C)C)C(=O)N[C@@H](CC(C)C)C(=O)N[C@@H](CO)C(=O)N[C@@H](CCCCN)C(=O)N[C@H](C(=O)N[C@@H](Cc1ccccc1)C(N)=O)[C@@H](C)CC [Kn2(A4R)] (H-FIGRIARLLSKIF-NH2): 5

Could you now consider this next molecule?
*Q* For S. aureus ATCC29213, give the measured MIC of the entry CC[C@H](C)[C@H](NC(=O)[C@H](CCCCN)NC(=O)[C@H](CCCCN)NC(=O)[C@@H](NC(=O)[C@@H](N)Cc1ccccc1)[C@@H](C)CC)C(=O)N[C@@H](C)C(=O)N[C@@H](CCCNC(=N)N)C(=O)N[C@@H](CC(C)C)C(=O)N[C@@H](CC(C)C)C(=O)N[C@@H](CCCCN)C(=O)N[C@@H](CCCCN)C(=O)N[C@H](C(=O)N[C@@H](Cc1ccccc1)C(N)=O)[C@@H](C)CC [Kn2-7(R4K_R10K)] (H-FIKKIARLLKKIF-NH2)
*A* 2.5
